Known AntiCD3/CD28 (CD4 T cell proliferation) repeat 1, % inhibition of a selection of binders
# ASSAY_TARGET: chimeric BTLA of humanised-BTLA mice (human extracellular region, murine transmembrane and signaling … (human; mouse, UniProt Q7TSA3 184-306, limits assumed)
# Sequence (Q7TSA3 other isoform, or with tags, fused parts or gaps mutant limits assumed): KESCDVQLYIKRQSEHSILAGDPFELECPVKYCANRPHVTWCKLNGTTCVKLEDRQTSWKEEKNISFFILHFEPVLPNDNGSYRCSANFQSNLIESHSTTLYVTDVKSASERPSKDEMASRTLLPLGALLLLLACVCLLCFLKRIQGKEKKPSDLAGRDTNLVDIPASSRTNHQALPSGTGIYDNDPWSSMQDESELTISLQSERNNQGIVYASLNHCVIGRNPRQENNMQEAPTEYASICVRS
# PROCEDURE_DETAILS: cell-based or functional assay
Express it in %; write the number only.

In the examples that follow, each entry is paired with its recorded AntiCD3/CD28 (CD4 T cell proliferation) repeat 1, % inhibition.
>  <BINDER>
21C7 (antibody, IgG1, V domains shown) VH: QIQLQQSGPELVKPGASVKISCKASGYAFSSSWMNWVKKRPGKGLEWIGRIYPGDGDANYNGKFKGKATLTADKSSSTAYMQLSSLTSEDSAVYFCAGEGHYYGSGYRWYLDVWGTGTTVTVSS VL: DIQMTQSPASLSVSVGETVTITCRASENIYSNLAWYQQKQGKSPQLLVYAATNLADGVPSRFSGSGSGTQYSLKINSLQSEDFGSYYCQHFRGAPFTFGSGTKLEIK

>  <UNIT_ABBREV>
%

>  <ASSAY_RESULT>
10

$$$$
>  <BINDER>
16H2 (antibody, IgG1, V domains shown) VH: EVQLQQSGPELVQPGASVKISCKASGYTFTDYYMIWVKQSHGKSLEWIGNINPNNGGTTYNQKFKGKATLTVDKSSSTAYMGLPSLTSEDSAVYYCARGGLRPLYFDYWGQGTTLTVSS VL: NIVMTQSPKSMSMSVGERVTLSCKASENVDTYVSWYQQKPEQSPKLLIYGASNRYTGVPDRFTGSGSATDFTLTISSVQAEDLADYHCGQSYSYPLTFGAGTKLELI

>  <UNIT_ABBREV>
%

>  <ASSAY_RESULT>
11

$$$$

Q. Reported AntiCD3/CD28 (CD4 T cell proliferation) repeat 1, % inhibition, binder 831 (antibody, V domains shown) VH: DVQLQESGPDLVKPSQSLSVTCTVTGYSITSGYSWHWIRQFPGNKLEWMGYIHYSGSTNYNPSLKSRISITRDTSKNQFFLQLSSVTTEDTATYYCASGPHRYDGVWFAYWGQGTLVTVSS VL: EIVLTQSPTTMAASPGEKITITCSASSSISSNYLHWYQQKPGFSPKLLIYRTSNLASGVPARFSGSGSGTSYSLTIGTMEAEDVATYYCQQGTNIPLTFGAGTKLEIK : ____
A. 10

Q. Reported AntiCD3/CD28 (CD4 T cell proliferation) repeat 1, % inhibition, binder 24H7 (antibody, IgG1, V domains shown) VH: QVQLQQSGAELVRPGASVTLSCKASGYTFTDYEIHWVKQTLVHGLEWIGPIDPDTGNTAYNQNLKGKAILTADKSSSTAYMELRSLTSEDSAVYYCTRGGYDSDWGFAYWGQGTLVTVSA VL: DIVMTQATPSVPVTPGESVSISCRSSKSLLHSNGNTFLFWFLQRPGQSPQLLIYRMSDLASGVPDRFSGSGSGTAFTLRISRVEAEDVGIYYCMQHLEYPFTFGSGTKLEIK : ____
A. 13

Q. Reported AntiCD3/CD28 (CD4 T cell proliferation) repeat 1, % inhibition, binder 6.2 (antibody, IgG1, V domains shown) VH: EVKLVESGGGLVKPGGSLKLSCAASGFTLSSYGMSWVRQIPEKRLEWVASIRSDGNTYYPDSVKGRFIISRDNARNILYLQMSSLRSEDTAMYYCTRGGYYGSSPYYWGQGTTLTVSS VL: DIVMSQSPSSLPVSVGEKISMTCKSSQSLLYSSNQKNYLAWYQQKPGQSPKLLIYWASTRDSGVPDRFIGSGSGTDFTLTINSVKAEDLAVYYCQQYYNYLTFGAGTKLELK : ____
A. 19

Data provenance is patent US20220177589A1.
